system: LXRa:RXRa (NR concentration 270 nM, RXRa partner concentration 90 nM); experiment: PBM binding z-score (relative to random genomic background probes); higher = stronger binding; sequences stand for … in GC…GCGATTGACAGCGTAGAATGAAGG
Lab note: compare PBM binding z-score against 0.5. Equal or greater, write TRUE. Smaller, write FALSE.

chain=TCTTGTAGATCAACGGGAGGTTAAGAAAGATCGA target_or_system="LXRa:RXRa (NR concentration 270 nM, RXRa partner concentration 90 nM)" assigned_category=TRUE
chain=GCGACTGGGGCATCAGCAGGTTACCCTAACTTAA target_or_system="LXRa:RXRa (NR concentration 270 nM, RXRa partner concentration 90 nM)" assigned_category=FALSE
chain=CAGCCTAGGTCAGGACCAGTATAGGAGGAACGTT target_or_system="LXRa:RXRa (NR concentration 270 nM, RXRa partner concentration 90 nM)" assigned_category=TRUE
chain=TCTTGTAGATCAGCAGCTTAAGAAAGCTGGCCAA target_or_system="LXRa:RXRa (NR concentration 270 nM, RXRa partner concentration 90 nM)" assigned_category=FALSE
chain=ACTATTAGTTGACTTAGGGCCACCGATACGACGC target_or_system="LXRa:RXRa (NR concentration 270 nM, RXRa partner concentration 90 nM)" assigned_category=FALSE
chain=ATACCAAGGTGATCGGGAGGTCGTTGATACTAAC target_or_system="LXRa:RXRa (NR concentration 270 nM, RXRa partner concentration 90 nM)" assigned_category=TRUE
chain=TCATACAGGTAAAGGTGAAAGTCGAACGATATGA target_or_system="LXRa:RXRa (NR concentration 270 nM, RXRa partner concentration 90 nM)" assigned_category=TRUE
chain=TCGAGTAGGTTACCAATGGGGCATTCAGCTTTCT target_or_system="LXRa:RXRa (NR concentration 270 nM, RXRa partner concentration 90 nM)" assigned_category=TRUE
chain=ATCGAAAGGTCGTGAGGTGAGTAAACAGAAAGGC target_or_system="LXRa:RXRa (NR concentration 270 nM, RXRa partner concentration 90 nM)" assigned_category=TRUE
chain=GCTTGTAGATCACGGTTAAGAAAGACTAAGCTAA target_or_system="LXRa:RXRa (NR concentration 270 nM, RXRa partner concentration 90 nM)" assigned_category=FALSE
chain=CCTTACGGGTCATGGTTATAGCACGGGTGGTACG target_or_system="LXRa:RXRa (NR concentration 270 nM, RXRa partner concentration 90 nM)" assigned_category=TRUE
chain=ATCTCTAGGTAACAAGTTCAGCGAAAGAGAGGAC target_or_system="LXRa:RXRa (NR concentration 270 nM, RXRa partner concentration 90 nM)" assigned_category=TRUE
chain=AGAATGAGCTTAAGATCAGGGAAACAGAATACAT target_or_system="LXRa:RXRa (NR concentration 270 nM, RXRa partner concentration 90 nM)" assigned_category=FALSE
chain=TCTAGCAGGCCAGAGGGTCACTCATGAGGTACGG target_or_system="LXRa:RXRa (NR concentration 270 nM, RXRa partner concentration 90 nM)" assigned_category=TRUE
chain=TCAATGAGGTTATAAGATCAGGGAACGTTGCAAA target_or_system="LXRa:RXRa (NR concentration 270 nM, RXRa partner concentration 90 nM)" assigned_category=TRUE
chain=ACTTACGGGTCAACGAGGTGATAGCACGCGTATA target_or_system="LXRa:RXRa (NR concentration 270 nM, RXRa partner concentration 90 nM)" assigned_category=TRUE
chain=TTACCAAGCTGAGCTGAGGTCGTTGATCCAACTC target_or_system="LXRa:RXRa (NR concentration 270 nM, RXRa partner concentration 90 nM)" assigned_category=FALSE
chain=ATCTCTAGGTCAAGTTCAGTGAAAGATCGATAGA target_or_system="LXRa:RXRa (NR concentration 270 nM, RXRa partner concentration 90 nM)" assigned_category=TRUE
chain=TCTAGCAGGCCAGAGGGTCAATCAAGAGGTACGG target_or_system="LXRa:RXRa (NR concentration 270 nM, RXRa partner concentration 90 nM)" assigned_category=TRUE
chain=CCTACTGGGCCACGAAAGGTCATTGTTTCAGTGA target_or_system="LXRa:RXRa (NR concentration 270 nM, RXRa partner concentration 90 nM)" assigned_category=TRUE
chain=ATAACAAGGTGATCGTGAGGTCGTTGATACTAAC target_or_system="LXRa:RXRa (NR concentration 270 nM, RXRa partner concentration 90 nM)" assigned_category=TRUE
chain=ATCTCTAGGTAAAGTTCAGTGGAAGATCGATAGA target_or_system="LXRa:RXRa (NR concentration 270 nM, RXRa partner concentration 90 nM)" assigned_category=TRUE
chain=GCGACTGGGTCAAAGCAGGTTACCATAAGGTTGG target_or_system="LXRa:RXRa (NR concentration 270 nM, RXRa partner concentration 90 nM)" assigned_category=TRUE
chain=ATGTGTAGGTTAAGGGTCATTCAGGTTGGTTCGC target_or_system="LXRa:RXRa (NR concentration 270 nM, RXRa partner concentration 90 nM)" assigned_category=TRUE
chain=CCTCGGAGGACAACAGGAGGTCAGAGCGGCCAGA target_or_system="LXRa:RXRa (NR concentration 270 nM, RXRa partner concentration 90 nM)" assigned_category=TRUE
chain=TAGCCTAGGTCATTCAGCGGCCAGTATAGAAAGC target_or_system="LXRa:RXRa (NR concentration 270 nM, RXRa partner concentration 90 nM)" assigned_category=TRUE
chain=GATACAGGGCCAGCTAGAGGCCAGAGTATGGAAA target_or_system="LXRa:RXRa (NR concentration 270 nM, RXRa partner concentration 90 nM)" assigned_category=FALSE
chain=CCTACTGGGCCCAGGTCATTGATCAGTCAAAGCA target_or_system="LXRa:RXRa (NR concentration 270 nM, RXRa partner concentration 90 nM)" assigned_category=TRUE
chain=ATCTCTAGGTAAAGATTGTTCAGTGAATGCAAAT target_or_system="LXRa:RXRa (NR concentration 270 nM, RXRa partner concentration 90 nM)" assigned_category=FALSE
chain=ATCTCTAGGTAACGAAGTTCAGTGAATGCCGAAC target_or_system="LXRa:RXRa (NR concentration 270 nM, RXRa partner concentration 90 nM)" assigned_category=FALSE
chain=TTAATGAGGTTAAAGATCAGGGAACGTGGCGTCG target_or_system="LXRa:RXRa (NR concentration 270 nM, RXRa partner concentration 90 nM)" assigned_category=TRUE
chain=TAGCCTAGGTCATGAGCCAGTATACCACGCGAAC target_or_system="LXRa:RXRa (NR concentration 270 nM, RXRa partner concentration 90 nM)" assigned_category=TRUE
chain=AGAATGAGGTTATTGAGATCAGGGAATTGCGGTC target_or_system="LXRa:RXRa (NR concentration 270 nM, RXRa partner concentration 90 nM)" assigned_category=TRUE
chain=CCTTACGGGTCACTCACAGGTTATAGCATTTGGA target_or_system="LXRa:RXRa (NR concentration 270 nM, RXRa partner concentration 90 nM)" assigned_category=TRUE
chain=AGAACGAGGGCAATGATTTGATAGCACGGGTGGC target_or_system="LXRa:RXRa (NR concentration 270 nM, RXRa partner concentration 90 nM)" assigned_category=FALSE
chain=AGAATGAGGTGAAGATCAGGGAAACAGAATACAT target_or_system="LXRa:RXRa (NR concentration 270 nM, RXRa partner concentration 90 nM)" assigned_category=FALSE
chain=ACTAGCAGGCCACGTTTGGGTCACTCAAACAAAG target_or_system="LXRa:RXRa (NR concentration 270 nM, RXRa partner concentration 90 nM)" assigned_category=FALSE
chain=CCTAGTTGGTCAGGAGGTAACACACCGGATATGA target_or_system="LXRa:RXRa (NR concentration 270 nM, RXRa partner concentration 90 nM)" assigned_category=FALSE
chain=TGAATGAGCTTAAAGATCAGGGAACGTGGCGTCG target_or_system="LXRa:RXRa (NR concentration 270 nM, RXRa partner concentration 90 nM)" assigned_category=FALSE
chain=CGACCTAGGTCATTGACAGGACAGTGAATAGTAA target_or_system="LXRa:RXRa (NR concentration 270 nM, RXRa partner concentration 90 nM)" assigned_category=TRUE
chain=CCAGACAGGTGAGAAGGTAACTCATCCTCGATTA target_or_system="LXRa:RXRa (NR concentration 270 nM, RXRa partner concentration 90 nM)" assigned_category=FALSE
chain=GCGACTGGGGCAAAGCAGGTTACAATAAGGTTGG target_or_system="LXRa:RXRa (NR concentration 270 nM, RXRa partner concentration 90 nM)" assigned_category=FALSE
chain=TCATATAGGTAAATGCTAGGTGCAAGTCCGATCT target_or_system="LXRa:RXRa (NR concentration 270 nM, RXRa partner concentration 90 nM)" assigned_category=TRUE
chain=GTACAAAGGTGAATAGGTCGTTGATGAGTAGGCG target_or_system="LXRa:RXRa (NR concentration 270 nM, RXRa partner concentration 90 nM)" assigned_category=TRUE
chain=CCTTACGGGTCACTCCTGGTTATAGCATCGGAGT target_or_system="LXRa:RXRa (NR concentration 270 nM, RXRa partner concentration 90 nM)" assigned_category=TRUE
chain=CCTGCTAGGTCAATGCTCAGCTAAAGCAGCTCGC target_or_system="LXRa:RXRa (NR concentration 270 nM, RXRa partner concentration 90 nM)" assigned_category=TRUE
chain=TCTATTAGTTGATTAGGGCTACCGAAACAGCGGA target_or_system="LXRa:RXRa (NR concentration 270 nM, RXRa partner concentration 90 nM)" assigned_category=FALSE
chain=ATCTCTAGGTAAAAGATCAGTGAATCCCGAGGAT target_or_system="LXRa:RXRa (NR concentration 270 nM, RXRa partner concentration 90 nM)" assigned_category=FALSE
chain=AGTCAAAGTTCACTAGGTAACGTTAGATTCAGCT target_or_system="LXRa:RXRa (NR concentration 270 nM, RXRa partner concentration 90 nM)" assigned_category=TRUE
chain=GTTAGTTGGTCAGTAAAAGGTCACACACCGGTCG target_or_system="LXRa:RXRa (NR concentration 270 nM, RXRa partner concentration 90 nM)" assigned_category=TRUE
